The entries below are paired with their reported GI50.
system: SK-MEL-5; experiment: NCI tumour cell line growth inhibition, 48 h
The source made the active and inactive calls. Cut-off read from the data, not from the text of the source: active = GI50 up to about 1.1 µM and inactive = higher.

Ask | # lookup: GI50 of COc1ccc(C2CC(=O)c3c(O)cc(O)cc3O2)cc1O (centres undefined)
Reply | > 100 µM (inactive)

Ask | # lookup: GI50 of O=C(Nc1cccc([N+](=O)[O-])c1)C(=O)C(C(=O)c1ccccc1F)C1OC(=O)C2C=CC=CC21 (centres undefined)
Reply | 73.1 µM (inactive)

Ask | # lookup: GI50 of "N#CC(C#N)=Cn1c(=S)[nH]c2ccc([N+](=O)[O-])cc21"
Reply | > 100 µM (inactive)

Ask | # lookup: GI50 of "Oc1cccc(-c2cn3cc(C(F)(F)F)ccc3n2)c1"
Reply | 22.5 µM (inactive)

====

system: HOP-92; assay: NCI tumour cell line growth inhibition, 48 h
Active and inactive are the calls of the source. No stated cut-off is given here; in the data, active = GI50 up to about 1.1 µM and inactive = higher.
Respond with a class label; see active, inactive

>>> class_name("O=C(c1ccccc1)C1OC12C(=O)Nc1ccccc12 (stereo not given)")
"inactive"

Ask | Call for entry "COC(=O)CCC(=O)NC1=C(NCc2ccccc2)C(=O)c2ccccc2C1=O" :
Reply | inactive

Ask | Call for entry "ON(CCc1ccncc1)Cc1ccccc1" :
Reply | inactive

Ask | Call for entry "Cc1nc(-c2nc(C)c(C(=O)NNC(=O)C[n+]3ccccc3)s2)sc1C(=O)NNC(=O)C[n+]1ccccc1" :
Reply | inactive

Ask | Call for entry "CCOc1cc2c(cc1O)/C(=N\O)C[C@@H]1[C@@H]2CC[C@]2(C)[C@@H](O)CC[C@@H]12" :
Reply | active

====

system: Malme-3M; assay: NCI tumour cell line growth inhibition, 48 h
Calls of active or inactive are those of the source. Cut-off read from the data, not from the text of the source: active = GI50 up to about 1.1 µM and inactive = higher.
The entries below are paired with their reported GI50.

>>> recorded_result("ON(CCc1ccncc1)Cc1ccccc1")
"> 100 µM (inactive)"

Ask | # lookup: GI50 of C=C=C(CC)C(C(=O)OC)N(CC)CC (stereo not drawn)
Reply | > 100 µM (inactive)

Ask | # lookup: GI50 of Nc1ncnc2c1ncn2C1CC(OCc2ccccc2[N+](=O)[O-])C(CO)O1 (stereo not drawn)
Reply | 20 µM (inactive)

Ask | # lookup: GI50 of CC1(C)CC[C@]2(C(=O)O)CC[C@]3(C)C(=CC[C@@H]4[C@@]5(C)CC[C@H](OC6OC(CO)C(O)C(O)C6O)C(C)(C)[C@@H]5CC[C@]43C)[C@@H]2C1 (stereo partly drawn)
Reply | 1.67 µM (inactive)

====

The entries below are paired with their reported GI50.
test system: T47D; assay: NCI tumour cell line growth inhibition, 48 h
Activity calls are given as the source filed them. No stated cut-off is given here; in the data, active = GI50 up to about 1.1 µM and inactive = higher.

>>> recorded_result("CCOC(=O)C(O)(NC(=O)c1ccccc1F)C(F)(F)F (stereo not drawn)")
"> 100 µM (inactive)"
>>> recorded_result("COC(=O)c1cc(C#N)[nH]c1-c1cccs1")
"24.4 µM (inactive)"
>>> recorded_result("CCc1cn2c(/C=N/N=C(N)N)c(-c3cc(C)c(Cl)cc3Cl)nc2s1")
"1.4 µM (inactive)"
>>> recorded_result("CC(/C=C/c1ccccc1)=N\\NC(N)=S")
"11.8 µM (inactive)"
>>> recorded_result("CC(=O)Oc1ccc2cc(-c3ccccc3OC(C)=O)c(=O)oc2c1")
"25.7 µM (inactive)"

Ask | # lookup: GI50 of SC1CCCN(Cc2ccccc2)C1 (stereo not drawn)
Reply | 27.5 µM (inactive)

Ask | # lookup: GI50 of "CNc1cc(N)ccc1C(=O)N1CCC[C@H]1CO"
Reply | > 100 µM (inactive)

Ask | # lookup: GI50 of "COC(=O)CCc1ccc2c(c1)C(=O)CC2"
Reply | > 100 µM (inactive)

Ask | # lookup: GI50 of O=C1/C(=C\c2ccc(-c3ccc(Cl)cc3Cl)o2)SC2NC(COc3ccc(Cl)cc3)=NN12 (stereo not drawn)
Reply | 27.2 µM (inactive)

Ask | # lookup: GI50 of "COc1ccc2c(c1)/C(=C\c1c(C)nc3sc(C)cn13)C(=O)N2"
Reply | 9.89 µM (inactive)
